# study_target: Fibroblast growth factor 10 (Homo sapiens) (UniProt O15520)
# Sequence (O15520 whole entry, looked up): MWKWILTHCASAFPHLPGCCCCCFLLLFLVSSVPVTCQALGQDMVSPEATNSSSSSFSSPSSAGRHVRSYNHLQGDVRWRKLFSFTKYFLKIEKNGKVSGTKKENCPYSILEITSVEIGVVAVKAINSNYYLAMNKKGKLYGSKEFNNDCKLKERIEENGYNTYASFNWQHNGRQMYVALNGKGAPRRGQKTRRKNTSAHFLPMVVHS
# assay_method_text: FGF10 binders on small-molecule microarrays, primary screen, biochemical, small-molecule microarray, 635 nm fluorescence (AID 1102)
# recorded_conditions: FGF10 binding, fluorescence 635 nm, higher = more signal
endpoint_name: composite z-score
Answer with a bare number; do not write a unit.

Query: Which composite z-score value is on record for CN1C(=O)C2C=CC(C(O)C3=C[C@H]4C[C@@H](C3)C4(C)C)N(Nc3ccccc3)C2C1=O (some centres undefined) ?
Response: 0.944

Query: Which composite z-score value is on record for COCCOC(=O)N1C(=O)[C@@]2(c3cc(C#CCCO)ccc31)[C@H](C(=O)N1CCN(c3ncccn3)CC1)[C@H]1C(=O)O[C@H](c3ccccc3)[C@H](c3ccccc3)N1[C@@H]2c1ccccc1OCCO ?
Response: 0.727

Query: Which composite z-score value is on record for C=CCOC(=O)[C@H]1[C@@H]2C(=O)O[C@@H](c3ccccc3)[C@@H](c3ccccc3)N2[C@@H](c2ccc(OCCOC(=O)[C@@H]3C[C@@H]4C(=O)N[C@@H](CCCC[N+](C)(C)C)C(=O)N4[C@@H]3c3ccc(O)cc3)cc2)[C@]12C(=O)Nc1ccccc12 ?
Response: 0.805

Query: Which composite z-score value is on record for Cc1ccc(C(C)CC(O)C2C=CC3C(=O)N(c4ccccc4)C(=O)C3N2Nc2ccc([N+](=O)[O-])cc2)o1 (centres undefined) ?
Response: 0.938

Query: Which composite z-score value is on record for C[C@@]1([C@@H](NC(=O)c2ccccc2)c2ccc(-c3ccccc3)cc2)C[C@H]1C1CCCCC1 ?
Response: -0.145

Query: Which composite z-score value is on record for CC1(C)[C@@H]2CC(C(O)C3C=CC4C(=O)N(c5ccccc5)C(=O)C4N3Nc3ccccc3)=C[C@H]1C2 (some centres undefined) ?
Response: 0.104

Query: Which composite z-score value is on record for CCOC(=O)C=Cc1cc([N+](=O)[O-])ccc1O ?
Response: -0.395

Query: Which composite z-score value is on record for COCC(=C=CC[C@@H](O)c1ccccc1OCCO)C[C@@H](O)c1cc(Cl)cc(Cl)c1O ?
Response: 1.23

Query: Which composite z-score value is on record for CCOC(=O)C[C@H]1[C@H](OC(=O)Cc2ccc3c(c2)OCO3)[C@@H](NC(=O)c2ccc3ccccc3c2)c2cc(OCCCO)ccc2N1C(=O)c1ccccc1 ?
Response: 0.47

Query: Which composite z-score value is on record for O=C1O[C@H](c2ccccc2)[C@H](c2ccccc2)N2[C@H]1[C@@H](C(=O)NC[C@H](O)c1ccccc1)[C@]1(C(=O)Nc3ccccc31)[C@H]2c1ccc(OCCO)cc1 ?
Response: 0.745

Query: Which composite z-score value is on record for O=C1OCCC/C=C\[C@H]2OC34C=CCN(Cn5nnc6ccccc65)C(=O)[C@H]3N(CCO)C(=O)[C@@H]4C12 (some centres undefined) ?
Response: -0.468

Query: Which composite z-score value is on record for O=C1OCCC/C=C\[C@H]2OC34C=CCN(CCN5CCOCC5)C(=O)[C@H]3N(CCCO)C(=O)[C@@H]4C12 (some centres undefined) ?
Response: 0.0487

Query: Which composite z-score value is on record for CCOc1cc(C(O)C2C=CC3C(=O)N(c4ccccc4)C(=O)C3N2Nc2ccccc2)ccc1O (centres undefined) ?
Response: 0.671

Query: Which composite z-score value is on record for O=C1C2C=CC(C(O)c3c(F)cccc3Cl)N(Nc3ccccc3)C2C(=O)N1c1ccccc1 (centres undefined) ?
Response: 0.581
